Test: Metabolic stability in human liver microsomes
Type: in vitro ADME
Details: pH 7.4, NADPH, 37° C., read-out: CLint (μL/min/mg protein)
endpoint: log10 of microsomal CLint at 0.25 μM (log10 of the value in µL/min/mg)

[
  {
    "smilesRepr": "[2H]C([2H])(c1c[nH]c2cccc(O)c12)C([2H])([2H])[N+](CC)(C([2H])([2H])[2H])C([2H])([2H])[2H].[I-]",
    "log10 of microsomal CLint at 0.25 μM": 0.64
  },
  {
    "smilesRepr": "[2H]C([2H])(c1c[nH]c2cccc(OC(C)=O)c12)C([2H])([2H])[N+](C)(C([2H])([2H])[2H])C([2H])([2H])[2H].[I-]",
    "log10 of microsomal CLint at 0.25 μM": 1.46
  },
  {
    "smilesRepr": "[2H]C([2H])(c1c[nH]c2cccc(O)c12)C([2H])([2H])[N+](C)(C)CC.[I-]",
    "log10 of microsomal CLint at 0.25 μM": 0.45
  },
  {
    "smilesRepr": "[2H]C([2H])(c1c[nH]c2cccc(O)c12)C([2H])([2H])[N+](C)(C)C.[I-]",
    "log10 of microsomal CLint at 0.25 μM": 0.75
  },
  {
    "smilesRepr": "[2H]C([2H])(c1c[nH]c2cccc(OC(C)=O)c12)C([2H])([2H])[N+](CC)(C([2H])([2H])[2H])C([2H])([2H])[2H].[I-]",
    "log10 of microsomal CLint at 0.25 μM": 1.62
  },
  {
    "smilesRepr": "[2H]C([2H])(c1c[nH]c2cccc(O)c12)C([2H])([2H])[N+](C)(C)CCC.[I-]",
    "log10 of microsomal CLint at 0.25 μM": 0.15
  },
  {
    "smilesRepr": "[2H]C([2H])(c1c[nH]c2cccc(O)c12)C([2H])([2H])[N+](C)(C([2H])([2H])[2H])C([2H])([2H])[2H].[I-]",
    "log10 of microsomal CLint at 0.25 μM": -0.64
  },
  {
    "smilesRepr": "[2H]C([2H])(c1c[nH]c2cccc(OC(C)=O)c12)C([2H])([2H])[N+](C)(C)CCC.[I-]",
    "log10 of microsomal CLint at 0.25 μM": 1.87
  },
  {
    "smilesRepr": "[2H]C([2H])(c1c[nH]c2cccc(O)c12)C([2H])([2H])[N+](C([2H])([2H])[2H])(C([2H])([2H])[2H])C([2H])([2H])[2H].[I-]",
    "log10 of microsomal CLint at 0.25 μM": -0.40
  },
  {
    "smilesRepr": "[2H]C([2H])(c1c[nH]c2cccc(OC(C)=O)c12)C([2H])([2H])[N+](C)(C)C.[I-]",
    "log10 of microsomal CLint at 0.25 μM": 1.47
  },
  {
    "smilesRepr": "[2H]C([2H])(c1c[nH]c2cccc(OC(C)=O)c12)C([2H])([2H])[N+](C)(C)CC.[I-]",
    "log10 of microsomal CLint at 0.25 μM": 1.68
  },
  {
    "smilesRepr": "[2H]C([2H])(c1c[nH]c2cccc(OC(C)=O)c12)C([2H])([2H])[N+](C([2H])([2H])[2H])(C([2H])([2H])[2H])C([2H])([2H])[2H].[I-]",
    "log10 of microsomal CLint at 0.25 μM": 1.47
  }
]
